- Study system: Human PD-L1/PD-1 (Homo sapiens)
- Construct: TVMV protease cleavage site (C); made in house; host or cells: HEK293T cells
- Sequence (Q9NZQ7 with tags, fused parts or gaps): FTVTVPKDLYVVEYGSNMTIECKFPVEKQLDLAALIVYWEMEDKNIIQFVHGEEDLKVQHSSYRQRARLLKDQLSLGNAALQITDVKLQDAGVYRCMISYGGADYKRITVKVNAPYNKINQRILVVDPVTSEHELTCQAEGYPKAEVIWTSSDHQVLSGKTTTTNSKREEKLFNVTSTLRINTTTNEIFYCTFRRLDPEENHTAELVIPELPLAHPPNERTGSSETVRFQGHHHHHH
- Procedure text: HTRF Human PD-L1/PD-1 binding assay (PD-1-Ig/PD-L1-His)
- Test conditions: PD-L1-His 10 nM, PD-1-Ig 20 nM; class symbol; read-out: HTRF Human PD-L1/PD-1 Binding Assay IC50 Range
pIC50: −log10 of the molar value. Where a SMILES comes first, the peptide text is derived from it. Bridges are numbered along the chain shown (N, C = ends). [ ]: non-standard residue; d: D form. ξ: configuration not given here. Hyp = O=C(O)[C@@H]1C[C@@H](O)CN1; NMeNle = CCCC[C@H](NC)C(=O)O; hSer = N[C@@H](CCO)C(=O)O; NMeA = CN[C@@H](C)C(=O)O; ξC = NC(CS)C(=O)O

Compound	Study system	pIC50
CCCC[C@H]1C(=O)N(C)[C@@H](CCCC)C(=O)N[C@@H](CCC(=O)O)C(=O)NC(C(=O)NCC(N)=O)CSCC(=O)N[C@@H](Cc2ccc(O)cc2)C(=O)N(C)[C@@H](C)C(=O)N[C@@H](CC(N)=O)C(=O)N2CCC[C@H]2C(=O)N[C@@H](CC(N)=O)C(=O)N[C@@H](CC(C)C)C(=O)N2CCC[C@H]2C(=O)N[C@@H](Cc2c[nH]c3ccccc23)C(=O)N[C@@H](CC(=O)O)C(=O)N[C@@H](Cc2c[nH]c3ccccc23)C(=O)N1C (stereo partly shown) [Example 9172] ({CH2CO}-Y[NMeA]NPNLPWDW[NMeNle][NMeNle]E[ξC]G-NH2; thioether N-14)	Human PD-L1/PD-1 (Homo sapiens)	6.00 to 7.00
CCCC[C@H]1C(=O)N(C)[C@@H](CCCC)C(=O)N[C@@H](CC(C)C)C(=O)NC(C(=O)NCC(N)=O)CSCC(=O)N[C@@H](Cc2ccc(O)cc2)C(=O)N(C)[C@@H](C)C(=O)N[C@@H](CC(N)=O)C(=O)N2CCC[C@H]2C(=O)N[C@@H](CC(N)=O)C(=O)N[C@@H](CC(C)C)C(=O)N2CCC[C@H]2C(=O)N[C@@H](Cc2c[nH]c3ccccc23)C(=O)N[C@@H](CO)C(=O)N[C@@H](Cc2c[nH]c3ccccc23)C(=O)N1C (stereo partly shown) [Example 9159] ({CH2CO}-Y[NMeA]NPNLPWSW[NMeNle][NMeNle]L[ξC]G-NH2; thioether N-14)	Human PD-L1/PD-1 (Homo sapiens)	8.00 to 9.00
CCCC[C@H]1C(=O)N(C)[C@@H](CCCC)C(=O)N[C@@H](CCC(=O)O)C(=O)N[C@H](C(=O)NCC(N)=O)CSCC(=O)N[C@@H](Cc2ccc(O)cc2)C(=O)N(C)[C@@H](C)C(=O)N[C@@H](CC(=O)O)C(=O)N2CCC[C@H]2C(=O)N[C@@H](CO)C(=O)N[C@@H](CCC(=O)O)C(=O)N2C[C@H](O)C[C@H]2C(=O)N[C@@H](Cc2c[nH]c3ccccc23)C(=O)N[C@@H](CO)C(=O)N[C@@H](Cc2c[nH]c3ccccc23)C(=O)N1C [Example 5233] ({CH2CO}-Y[NMeA]DPSE[Hyp]WSW[NMeNle][NMeNle]ECG-NH2; thioether N-14)	Human PD-L1/PD-1 (Homo sapiens)	8.00 to 9.00
CCCC[C@H]1C(=O)N(C)[C@@H](CCCC)C(=O)N[C@@H](CCCNC(=N)N)C(=O)NC(C(=O)NCC(N)=O)CSCC(=O)N[C@@H](Cc2ccc(O)cc2)C(=O)N(C)[C@@H](C)C(=O)N[C@@H](CC(N)=O)C(=O)N2CCC[C@H]2C(=O)N[C@@H](CCO)C(=O)N[C@@H](CO)C(=O)N2CCC[C@H]2C(=O)N[C@@H](Cc2c[nH]c3ccccc23)C(=O)N[C@@H](CO)C(=O)N[C@@H](Cc2c[nH]c3ccccc23)C(=O)N1C (stereo partly shown) [Example 10024] ({CH2CO}-Y[NMeA]NP[hSer]SPWSW[NMeNle][NMeNle]R[ξC]G-NH2; thioether N-14)	Human PD-L1/PD-1 (Homo sapiens)	7.00 to 8.00

----------
Entries and their pIC50
- Study system: Human PD-L1/PD-1 (Homo sapiens)
- Construct: TVMV protease cleavage site (C); made in house; host or cells: HEK293T cells
- Procedure text: HTRF Human PD-L1/PD-1 binding assay (PD-1-Ig/PD-L1-His)
- Test conditions: PD-L1-His 10 nM, PD-1-Ig 20 nM; class symbol; read-out: HTRF Human PD-L1/PD-1 Binding Assay IC50 Range
pIC50: −log10 of the molar value. Where a SMILES comes first, the peptide text is derived from it. Bridges are numbered along the chain shown (N, C = ends). [ ]: non-standard residue; d: D form. ξ: configuration not given here. Trp(7-aza) = N[C@@H](Cc1c[nH]c2ncccc12)C(=O)O; 1Nal = N[C@@H](Cc1cccc2ccccc12)C(=O)O; Bta = N[C@@H](Cc1csc2ccccc12)C(=O)O; Hyp = O=C(O)[C@@H]1C[C@@H](O)CN1; NMeF = CN[C@@H](Cc1ccccc1)C(=O)O; dHyp = O=C(O)[C@H]1C[C@H](O)CN1; NMeNle = CCCC[C@H](NC)C(=O)O; hSer = N[C@@H](CCO)C(=O)O; NMeA = CN[C@@H](C)C(=O)O; ξC = NC(CS)C(=O)O; Sar = CNCC(=O)O

Compound	Study system	pIC50
CCCC[C@H]1C(=O)N(C)CC(=O)N[C@@H](CC(=O)O)C(=O)N[C@@H](C(C)C)C(=O)N(C)[C@@H](Cc2ccccc2)C(=O)N[C@@H](Cc2c[nH]c3ccccc23)C(=O)N(C)CC(=O)N[C@@H](Cc2c[nH]c3ccccc23)C(=O)N[C@@H](Cc2ccc(O)cc2)C(=O)N[C@@H](CC(C)C)C(=O)N[C@H](C(=O)NCC(N)=O)CSCC(=O)N[C@@H](Cc2ccccc2)C(=O)N(C)[C@@H](Cc2ccccc2)C(=O)N1C [Example 3231] ({CH2CO}-F[NMeF][NMeNle][Sar]DV[NMeF]W[Sar]WYLCG-NH2; thioether N-13)	Human PD-L1/PD-1 (Homo sapiens)	8.00 to 9.00
CCCC[C@H]1C(=O)N(C)[C@@H](CCCC)C(=O)N[C@@H](CCC(=O)O)C(=O)NC(C(=O)NCC(N)=O)CSCC(=O)N[C@@H](Cc2ccc(O)cc2)C(=O)N(C)[C@@H](C)C(=O)N[C@@H](CC(N)=O)C(=O)N2CCC[C@H]2C(=O)N[C@@H](CC(N)=O)C(=O)N[C@@H](CC(C)C)C(=O)N2C[C@H](O)C[C@H]2C(=O)N[C@@H](Cc2c[nH]c3ccccc23)C(=O)N[C@@H](CO)C(=O)N[C@@H](Cc2c[nH]c3ccccc23)C(=O)N1C (some centres unmarked) [Example 9169] ({CH2CO}-Y[NMeA]NPNL[Hyp]WSW[NMeNle][NMeNle]E[ξC]G-NH2; thioether N-14)	Human PD-L1/PD-1 (Homo sapiens)	8.00 to 9.00
CCCC[C@H]1C(=O)N(C)CC(=O)N[C@@H](CC(N)=O)C(=O)N[C@@H](C(C)C)C(=O)N(C)[C@@H](Cc2ccccc2)C(=O)N[C@@H](Cc2ccc(O)cc2)C(=O)N(C)CC(=O)N[C@@H](Cc2c[nH]c3ncccc23)C(=O)N[C@@H](Cc2ccc(O)cc2)C(=O)N[C@@H](CC(C)C)C(=O)N[C@H](C(=O)NCC(N)=O)CSCC(=O)N[C@@H](Cc2ccccc2)C(=O)N(C)[C@@H](Cc2ccccc2)C(=O)N1C [Example 3241] ({CH2CO}-F[NMeF][NMeNle][Sar]NV[NMeF]Y[Sar][Trp(7-aza)]YLCG-NH2; thioether N-13)	Human PD-L1/PD-1 (Homo sapiens)	7.00 to 8.00
CCCC[C@H]1C(=O)N2C[C@@H](O)C[C@@H]2C(=O)N[C@@H](CC(=O)O)C(=O)N[C@@H](C)C(=O)N(C)[C@@H](Cc2ccccc2)C(=O)N[C@@H](Cc2ccc(O)cc2)C(=O)N(C)CC(=O)N[C@@H](Cc2c[nH]c3ccccc23)C(=O)N[C@@H](Cc2ccc(O)cc2)C(=O)N[C@@H](CC(C)C)C(=O)N[C@H](C(=O)NCC(N)=O)CSCC(=O)N[C@@H](Cc2ccccc2)C(=O)N(C)[C@@H](Cc2ccccc2)C(=O)N1C [Example 10086] ({CH2CO}-F[NMeF][NMeNle][dHyp]DA[NMeF]Y[Sar]WYLCG-NH2; thioether N-13)	Human PD-L1/PD-1 (Homo sapiens)	7.00 to 8.00
CCCC[C@H]1C(=O)N(C)CC(=O)N[C@@H](CC(=O)O)C(=O)N[C@@H](C(C)C)C(=O)N(C)[C@@H](Cc2ccccc2)C(=O)N[C@@H](Cc2ccc(O)cc2)C(=O)N(C)CC(=O)N[C@@H](Cc2c[nH]c3ccccc23)C(=O)N[C@@H](Cc2ccc(O)cc2)C(=O)N[C@@H](CC(C)C)C(=O)N[C@H](C(=O)NCC(N)=O)CSCC(=O)N[C@@H](Cc2cccc3ccccc23)C(=O)N(C)[C@@H](Cc2ccccc2)C(=O)N1C [Example 3235] ({CH2CO}-[1Nal][NMeF][NMeNle][Sar]DV[NMeF]Y[Sar]WYLCG-NH2; thioether N-13)	Human PD-L1/PD-1 (Homo sapiens)	5.00 to 6.00
CCCC[C@H]1C(=O)N(C)[C@@H](CCCC)C(=O)N[C@@H](CCCNC(=N)N)C(=O)NC(C(=O)NCC(N)=O)CSCC(=O)N[C@@H](Cc2ccc(O)cc2)C(=O)N(C)[C@@H](C)C(=O)N[C@@H](CC(N)=O)C(=O)N2CCC[C@H]2C(=O)N[C@@H](CO)C(=O)N[C@@H](CCO)C(=O)N2CCC[C@H]2C(=O)N[C@@H](Cc2c[nH]c3ccccc23)C(=O)N[C@@H](CCO)C(=O)N[C@@H](Cc2c[nH]c3ccccc23)C(=O)N1C (some centres unmarked) [Example 10051] ({CH2CO}-Y[NMeA]NPS[hSer]PW[hSer]W[NMeNle][NMeNle]R[ξC]G-NH2; thioether N-14)	Human PD-L1/PD-1 (Homo sapiens)	8.00 to 9.00
CCCC[C@H]1C(=O)N(C)[C@@H](CCCC)C(=O)N[C@@H](CCCNC(=N)N)C(=O)NC(C(=O)NCC(N)=O)CSCC(=O)N[C@@H](Cc2ccc(O)cc2)C(=O)N(C)[C@@H](C)C(=O)N[C@@H](CC(N)=O)C(=O)N2CCC[C@H]2C(=O)N[C@@H](CCO)C(=O)N[C@@H](CC(C)C)C(=O)N2C[C@H](O)C[C@H]2C(=O)N[C@@H](Cc2c[nH]c3ccccc23)C(=O)N[C@@H](CO)C(=O)N[C@@H](Cc2csc3ccccc23)C(=O)N1C (some centres unmarked) [Example 9150] ({CH2CO}-Y[NMeA]NP[hSer]L[Hyp]WS[Bta][NMeNle][NMeNle]R[ξC]G-NH2; thioether N-14)	Human PD-L1/PD-1 (Homo sapiens)	8.00 to 9.00
CCCC[C@H]1C(=O)N(C)[C@@H](CCCC)C(=O)N[C@@H](C)C(=O)N[C@H](C(=O)NCC(N)=O)CSCC(=O)N[C@@H](Cc2ccc(O)cc2)C(=O)N(C)[C@@H](C)C(=O)N[C@@H](CC(N)=O)C(=O)N2CCC[C@H]2C(=O)N[C@@H](Cc2cnc[nH]2)C(=O)N[C@@H](CCN)C(=O)N2C[C@H](O)C[C@H]2C(=O)N[C@@H](Cc2c[nH]c3ccccc23)C(=O)N[C@@H](CO)C(=O)N[C@@H](Cc2c[nH]c3ccccc23)C(=O)N1C	Human PD-L1/PD-1 (Homo sapiens)	7.00 to 8.00
